// provenance: PubChem BioAssay

Test: inhibitors of TNFa-induced NFkB p65 translocation, primary screen, imaging, HUVEC, MLSMR starter and 10KST1 sets (AID 438);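 also: compound added about 3h40 before a 20 min TNFalpha stimulation; signal is the nuclear over cytoplasmic p65 intensity ratio per well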
Details: HUVEC TNFa-induced p65 nuclear translocation; at 2 µM, stronger effect = higher value, 0% TNFa-plus-vehicle, 100% no-TNFa wells
Measured Property: inhibition (%)
# value in %; strip the unit string

Worked set:
>  <Molecule>
CCOc1cc(-c2nc(-c3ccccc3OC)no2)cc(OCC)c1OCC

>  <Measured Property>
inhibition

>  <Result Units>
%

>  <Experimental Result>
7.7

$$$$
>  <Molecule>
CCc1nnc(NC(=O)CSc2nnc3scc(-c4ccc(C)cc4)n23)s1

>  <Measured Property>
inhibition

>  <Result Units>
%

>  <Experimental Result>
-32.6

$$$$

As a next step, examine the molecule that follows.
Data request: What value of inhibition has been reported for the following molecule? CC(=O)Nc1ccc(S(=O)(=O)Nc2nc3c(s2)CCCC3)cc1
Data returned: -2.1
